Assay: qHTS for differential inhibitors of proliferation of Plasmodium falciparum line GB4 (AID 1816);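 note: parasite growth measured after 72 h incubation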; note: potency is the fitted concentration of half-maximal effect
Conditions: Plasmodium falciparum GB4 proliferation inhibition; series mostly up to 28.7 µM
Results filed as inconclusive are left out. Active and inactive are the calls of the source. Calls come from the whole dose curve; as a rule, active = well fitted curve in the direction sought with a large enough effect; inconclusive = small, poorly fitted or top-dose-only effect, or another doubt; inactive = no such curve, though single readings can be large or run the other way.
Assay endpoint: Potency

Worked cases, answers included:
1) CCCN1CCc2cccc3c2C1Cc1ccc(O)c(O)c1-3 (stereo unspecified) ... 2 µM (active)
2) COc1ccc2c(c1O)-c1cccc3c1C(C2)N(C)CC3 (stereo unspecified) ... 8.91 µM (active)
3) CC(C)(O)C1C2OC(=O)C1[C@]1(O)C[C@H]3O[C@]34C(=O)O[C@H]2[C@]14C (stereo partly specified) (tested in a mixture with another compound) ... inactive
4) CCCN1CCCC(c2cccc(O)c2)C1 (stereo unspecified) ... 12.6 µM (active)
5) CCCCN1C2CCC1CC(OC(c1ccc(F)cc1)c1ccc(F)cc1)C2 (stereo unspecified) ... 1.58 µM (active)

# query: Potency of entry CCCC[N+]1(C)C2CC(OC(=O)C(CO)c3ccccc3)CC1C1OC12 (stereo unspecified)
inactive

# query: Potency of entry Oc1cc2c(cc1O)[C@H]1c3ccccc3CNC1CC2 (stereo partly specified)
12.6 µM (active)

# query: Potency of entry C/C=C(/C)C(=O)O[C@H]1C(C)=C2C([C@@H]1OC(=O)CCCCCCC)[C@@](C)(OC(C)=O)C[C@@H](OC(=O)CCC)[C@@]1(O)[C@H]2OC(=O)[C@@]1(C)O (stereo partly specified)
3.16 µM (active)

# query: Potency of entry CCNC(=O)[C@H]1O[C@@H](n2cnc3c(N)ncnc32)[C@H](O)[C@H]1O
inactive

# query: Potency of entry CC(C)[C@@]1(NC(=O)[C@@H]2C[C@@H]3c4cccc5[nH]cc(c45)C[C@H]3N(C)C2)O[C@@]2(O)C3CCCN3C(=O)[C@H](Cc3ccccc3)N2C1=O (stereo partly specified)
1.12 µM (active)

# query: Potency of entry CCCN1CCc2cc(O)cc3c2C1Cc1ccc(O)c(O)c1-3 (stereo unspecified)
3.16 µM (active)

====

Target: Calcium and integrin-binding protein 1 (Homo sapiens) (UniProt Q99828)
Sequence (Q99828 whole entry, looked up): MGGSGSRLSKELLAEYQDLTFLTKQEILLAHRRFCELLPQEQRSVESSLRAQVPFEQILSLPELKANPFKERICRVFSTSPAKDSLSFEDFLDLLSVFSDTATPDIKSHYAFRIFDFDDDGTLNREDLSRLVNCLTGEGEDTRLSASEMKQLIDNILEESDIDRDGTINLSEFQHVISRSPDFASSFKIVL
Assay: Primary qHTS for Identification of Calcium Integrin Binding Protein 1 (CIB1) Competitor (AID 1508620);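 note: GST tagged CIB1 binding a fluorescein labelled alphaIIb integrin peptide tracer; top concentration of the series differs between compounds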
Conditions: CIB1-GST / FITC-alphaIIb peptide fluorescence polarization; series mostly up to 114 µM
Inconclusive results are not listed. Calls of active or inactive are those of the source. Calls follow the shape of the dose curve; as a rule, active = well fitted inhibition curve with a large enough effect; inconclusive = small, poorly fitted or top-dose-only effect; inactive = flat fitted curve, though single readings scatter.
Assay endpoint: outcome

Worked cases, answers included:
1) CCOc1ccc(CCNC(=O)c2ccc(C(=O)c3ccccc3)cc2)cc1OCC ... inactive
2) CCOc1ccc(CCNC(=O)c2cc3ccncc3n2Cc2cccc(C)c2)cc1OCC ... inactive
3) CCOc1ccc(CCNC(=O)c2cc3sccc3n2Cc2ccc(F)cc2F)cc1OCC ... inactive
4) Cc1cccc(C)c1OP(=O)(OCc1c(-c2ccccc2)no[n+]1[O-])Oc1c(C)cccc1C ... inactive

# query: outcome of entry S=P(c1ccccc1)(c1ccccc1)c1cnc2ccccn12
inactive

====

Experiment: Cytotoxicity counterscreen for inhibitors of SARS-CoV-2 cell entry (AID 1645845); note: nearly all actives have a fitted effect of over 50% in size
Settings: cell viability (SARS-CoV-2 entry assay cells); series mostly up to 57.1 µM
Results filed as inconclusive are left out. The source made the active and inactive calls. The call rests on the fitted dose curve.
Respond using exactly one of the listed classes: active, inactive

Before answering, review these 5 worked examples.
1) CCc1c(-c2ccccc2C)nc2c(C#N)c[nH]n2c1=O ... inactive
2) CN[C@H]1C[C@@H](N)[C@H](O)[C@@H](O[C@@H]2O[C@H](CO)[C@H](O)[C@@H]3OC4(O[C@H]23)O[C@H]([C@@H](N)CO)[C@H](O)[C@H](O)[C@H]4O)[C@@H]1O (stereo partly drawn) ... inactive
3) N=C(N)c1ccc2nc(-c3cc(CC(=O)N[C@@H](CC(=O)O)C(=O)O)cc(-c4cc(S(N)(=O)=O)ccc4O)c3O)[nH]c2c1 ... inactive
4) C=C1CC2C3CCC4=CC(=O)C=C[C@]4(C)[C@@]3(F)[C@@H](O)C[C@]2(C)[C@@]1(O)C(=O)COC(C)=O (stereo partly drawn) ... inactive
5) CO/N=C(\C(=O)N[C@@H]1C(=O)N2C(C(=O)O)=C(CSc3nnnn3C)CS[C@H]12)c1csc(N)n1 ... inactive

Called result for COc1cc(N2CCC(N(C)C)CC2)ccc1Nc1ncc(Cl)c(Nc2ccccc2P(C)(C)=O)n1
active

Called result for COc1cccc2c1c(O)c(C(=O)N(C)c1ccc(C(F)(F)F)cc1)c(=O)n2C
inactive

Called result for CC1CCCCN1CCCOC(=O)c1ccccc1 (stereo not drawn)
inactive
